- Test system: primary AML cell line AML2
- experiment-description: Anti-leukemic activity, Annexin V/7-AAD flow cytometry
- Format: cell-based, human
- run-parameters: 24 h of drug exposure; read-out: AML#2 (EC50)
// reported EC50 per item
Could you give me the number in µM? Just the number is fine.

compound: C=C1C(=O)O[C@@H]2[C@H]3O[C@]3(C)CC/C=C(\CO)CC[C@@H]12 [MMB, Melampomagnolide B]
unit: µM
EC50: 24.3

compound: CN(C)CC1C(=O)O[C@H]2[C@H]1CC/C(Cn1cc(-c3cc(C(F)(F)F)cc(C(F)(F)F)c3)nn1)=C\CC[C@@]1(C)O[C@@H]21 (stereo partly drawn) [JVM 4-29C]
unit: µM
EC50: 2.9

Now take the following compound into account.
INPUT: Enter measured EC50, system primary AML cell line AML2, for the compound shown: C/C1=C\CC[C@@]2(C)O[C@@H]2[C@H]2OC(=O)[C@H](CN(C)C)[C@@H]2CC1 [DMAPT, reference compound]
OUTPUT: 11.3

###

// reported GI50 per item
- Tested on: NCI-H522
- experiment-description: NCI 60 growth inhibition
- Assay type: cell-based, human
- run-parameters: Homo sapiens; NCI-H522, Non-Small Cell Lung Cancer, Table 2
Could you give me the number in nM? Just the number is fine.

INPUT: Give the reported value of GI50 for this record: `C=C1C(=O)O[C@H]2[C@H]1CC/C(Cn1cc(-c3cc(C(F)(F)F)cc(C(F)(F)F)c3)nn1)=C\CC[C@@]1(C)O[C@@H]21`
OUTPUT: 120

###

- Tested on: HCT-116
- experiment-description: NCI 60 growth inhibition
- Format: cell-based, human
- run-parameters: Homo sapiens; HCT-116, Colon Cancer, Table 2
- Procedure: The above triazole derivatives of melampomagnolide B were evaluated for growth inhibitory properties against an NCI panel of 60 human cancer cell lines derived from nine human cancer cell types, grouped into disease sub-panels that represent leukemia, lung, colon, central nervous system (CNS), melanoma, renal, ovary, breast, and prostate cancer cells. Growth inhibitory (GI50) effects were measured as a function of the variation of optical density as a percentage of control.
Sorting guide: entries reporting GI50 beneath 500 nM go in the 1 pile, the rest go in the -1 pile.

Below are worked cases with known answers.
structure-string: C=C1C(=O)O[C@H]2[C@H]1CC/C(Cn1cc(CCC)nn1)=C\CC[C@@]1(C)O[C@@H]21
class-label: -1
//
structure-string: C=C1C(=O)O[C@H]2[C@H]1CC/C(Cn1cc(-c3ccc(OC)cc3)nn1)=C\CC[C@@]1(C)O[C@@H]21
class-label: 1
//
structure-string: C=C1C(=O)O[C@H]2[C@H]1CC/C(Cn1cc(-c3ccccc3)nn1)=C\CC[C@@]1(C)O[C@@H]21
class-label: -1
//
structure-string: C=C1C(=O)O[C@H]2[C@H]1CC/C(Cn1cc(-c3cc(C(F)(F)F)cc(C(F)(F)F)c3)nn1)=C\CC[C@@]1(C)O[C@@H]21
class-label: 1
//
structure-string: C=C1C(=O)O[C@H]2[C@H]1CC/C(Cn1cc(-c3ccc(F)cc3)nn1)=C\CC[C@@]1(C)O[C@@H]21
class-label: 1

INPUT: Below 500 nM on GI50? Entry `C=C1C(=O)O[C@H]2[C@H]1CC/C(Cn1cc(-c3cccc(Cl)c3)nn1)=C\CC[C@@]1(C)O[C@@H]21`
OUTPUT: 1
